Cited source: patent US20250297032A1

Molecular target: T1, human FAPα-His tag (Sino biological) (human, UniProt Q12884 26-760)
T1 construct: Bought protein; also called human FAPα-His protein; not shown: His tag
T1 sequence (looked up): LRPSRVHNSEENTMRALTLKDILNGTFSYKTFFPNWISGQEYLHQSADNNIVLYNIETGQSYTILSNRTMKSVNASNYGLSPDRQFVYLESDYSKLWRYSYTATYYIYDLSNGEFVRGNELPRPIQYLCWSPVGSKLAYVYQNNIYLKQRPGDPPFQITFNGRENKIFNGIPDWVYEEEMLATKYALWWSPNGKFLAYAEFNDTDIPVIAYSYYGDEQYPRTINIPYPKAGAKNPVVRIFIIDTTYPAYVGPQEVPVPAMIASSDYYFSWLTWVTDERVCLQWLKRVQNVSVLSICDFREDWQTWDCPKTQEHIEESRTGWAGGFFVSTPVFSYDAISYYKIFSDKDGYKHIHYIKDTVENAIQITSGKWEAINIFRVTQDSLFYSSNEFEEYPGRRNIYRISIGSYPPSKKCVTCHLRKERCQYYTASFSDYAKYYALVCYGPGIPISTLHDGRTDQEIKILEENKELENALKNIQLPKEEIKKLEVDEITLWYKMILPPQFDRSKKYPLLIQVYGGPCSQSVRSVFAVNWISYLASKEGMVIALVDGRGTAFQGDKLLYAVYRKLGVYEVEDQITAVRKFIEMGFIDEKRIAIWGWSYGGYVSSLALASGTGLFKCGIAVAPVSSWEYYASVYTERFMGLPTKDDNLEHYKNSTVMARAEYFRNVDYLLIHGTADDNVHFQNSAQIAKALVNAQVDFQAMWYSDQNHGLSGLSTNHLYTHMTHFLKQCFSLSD
Experiment: competitive ELISA on coated human FAPα; competitor (detected): FAP-G52-Bio
resultType: OD 450 nm (OD 450 nm)
Kindly provide the numeric value in OD 450 nm only, without the unit symbol.

Solved cases (4 shown):
| binder | OD 450 nm, OD 450 nm |
| --- | --- |
| G14 (antibody, V domains shown, Full human antibody from a Fab phage library; Tested as a mAb (detected with anti-human IgG, captured on Protein A); also called FAP-G14; FAP-G14-Bio (biotin-conjugated form)) VH: QVQLLESGGGVVQPGRSLRLSCAASGFTFSSYAMHWVRQAPGKGLEWVAFISHDGNRNSYADSVRGRFTISRDNSKNTLYLQMNSLRAEDTAVYYCARDLGYYNGFSYWGQGTLVTVSA VL: DIVMTQSPSSVSASVGDRVTITCRASQGISSWLAWYQQKPGKAPKLLIYAASSLQSGVPSRFSGSGSGTDFTLTISSLQPEDFATYYCQQANSFPPTFGPGTKVDIK | 0.195 |
| I37 (antibody, V domains shown, Tested as a mAb; also called FAP-I37) VH: QLQLVESGGGLVQPGGSLRLSCAASGFTFSSYAMSWVRQAPGKGLEWVSAISGSGGSTYYADSVKGRFTISRDNSKNTLYLQMNSLRAEDTAVYYCARDKPWGGSFDYWGQGTLVTVSA VL: DIQLTQSPSSLSASVGDRVTITCRASQGISSWLAWYQQKPGKAPKLLIYAASSLQSGVPSRFSGSGSGTDFTLTISSLQPEDFATYYCQQANSFPVTFGPGTKVDIK | 0.18 |
| G52 (antibody, V domains shown, Tested as a mAb; also called FAP-G52; FAP-G52-Bio (biotin-conjugated form)) VH: EVQLLESGGDLVQPGGSLRLSCAASGFTFSSYAMSWVRQAPGKGLEWVSGISNGGDSIAYADSVKGRFTVFRDNAKNTLYLQMNSLRAEDTAIYYCARGNYYAHDDWGQGTLVTVSA VL: DIQLTQSPSSVSASVGDRVTITCRASQGVGSWLAWYQQKPGKPPKLLIYAASSLQSGVPSRFSGSGSGTDFTLTISSLQPEDFATYYCQQANSFPLTFGGGTKVEIK | 0.283 |
| I38 (antibody, V domains shown, Tested as a mAb; also called FAP-I38) VH: EVQLVQSGAEVKEPGVSVKVSCKASGYTFASYGLSWVRLAPGQGLQWMGWISPYTPNPIYAPNFRDKVILTTDRSTNTAYLEVRSLRSDDTGLYYCARNHWVGRPTRAFDLWGQGTMVTVSA VL: EIVLTQSPGTLSLSPGERATLSCRASQTVSITHLAWYQQKPGQAPRLLTYGASARATGIPDRFSVSGSGTDFTLTITRLEPEDFAVYYCQHYGSSITFGGGTKVEIK | 0.176 |

IN: Need OD 450 nm of J40 (antibody, V domains shown, Tested as a mAb; also called FAP-J40; FAP-J40-Bio (biotin-conjugated form)) VH: EVQLLESGGGLVQPGGSLRLSCAASGFTFSSYAMSWVRQAPGKGLEWVSAISGSGGSTYYADSVKGRFTISRDNSKNTLYLQMNSLRTDDTAVYYCARDLTTSTGWESWGQGTLVTVSA VL: NIQMTQSPSSVSASVGDRVTITCRASQGISSWLAWYQQKPGKAPKLLIYAASSLQSGVPSRFSGSGSGTDFTLTISSLQPEDFATYYCQQANSFPPTFGQGTKLEIK , thanks.
OUT: 0.206
